The reported numbers originate from patent US5559144A.

Provide the reported IC50 of each item.
TARGET_OR_SYSTEM: 5-Lipoxygenase from RBL-1 20,000xg Supernatant (Rattus norvegicus)
Construct: 20,000 xg supernatant from 1.5 million homogenized RBL-1 cells; endogenous in cells
Sequence (P12527 whole entry): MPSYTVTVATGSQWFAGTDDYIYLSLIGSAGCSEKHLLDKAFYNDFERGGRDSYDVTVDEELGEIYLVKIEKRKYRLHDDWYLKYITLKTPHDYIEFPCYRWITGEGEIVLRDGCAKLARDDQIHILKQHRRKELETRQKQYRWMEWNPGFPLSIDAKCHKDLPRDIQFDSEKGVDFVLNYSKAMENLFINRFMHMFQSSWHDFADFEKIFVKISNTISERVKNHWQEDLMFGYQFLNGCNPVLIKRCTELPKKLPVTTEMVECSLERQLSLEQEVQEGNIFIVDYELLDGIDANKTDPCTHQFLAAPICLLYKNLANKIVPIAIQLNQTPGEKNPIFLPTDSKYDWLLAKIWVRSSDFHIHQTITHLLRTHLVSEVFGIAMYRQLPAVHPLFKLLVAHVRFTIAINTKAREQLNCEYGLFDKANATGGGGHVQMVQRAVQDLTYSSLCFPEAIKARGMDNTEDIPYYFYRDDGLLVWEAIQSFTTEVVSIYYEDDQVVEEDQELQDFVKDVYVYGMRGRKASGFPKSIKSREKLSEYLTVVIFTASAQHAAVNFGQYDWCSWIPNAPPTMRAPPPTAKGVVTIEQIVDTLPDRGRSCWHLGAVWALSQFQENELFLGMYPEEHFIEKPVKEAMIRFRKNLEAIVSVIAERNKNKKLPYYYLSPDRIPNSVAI
PROCEDURE_DETAILS: 5-lipoxygenase inhibitory activity, 20,000 xg supernatant from homogenized RBL-1 cells
ASSAY_SETUP: radiolabeled arachidonic acid, triplicate
Give the value, in units of nM, as a plain number.

[ask] Consider the compound CC(C#Cc1ccc(Oc2ccccc2)o1)N(O)C(N)=O (stereo not drawn) and give its measured IC50.
[reply] 200

[ask] Would you mind telling me what IC50 value was observed for CNC(=O)N(O)C(C)C#Cc1ccc(C)cc1 (stereo not drawn) ?
[reply] 800

[ask] I have this compound here, CCc1ccc(C#CC(C)N(O)C(=O)NC)cc1 (stereo not drawn) , and I need its recorded IC50.
[reply] 400

[ask] For the compound CC(C#Cc1cccc(Oc2ccc(F)cc2)c1)N(O)C(N)=O (stereo not drawn) , what IC50 is on record?
[reply] 300

[ask] // query IC50 value for entry Cc1ccc(Oc2ccc(C#CC(C)N(O)C(N)=O)o2)cc1 (stereo not drawn)
[reply] 300

[ask] I'd like to know its IC50. The compound in question is CC(C#CCSc1ccccc1)N(O)C(N)=O (stereo not drawn)
[reply] 400

[ask] Which IC50 reading was recorded for the compound CC(C#CC1=CCCCC1)N(O)C(N)=O (stereo not drawn) ?
[reply] 1200

[ask] I would be grateful if you could share the reported IC50 for CC(C#CC1CCCCC1)N(O)C(N)=O (stereo not drawn) .
[reply] 1900

[ask] Item CNC(=O)N(O)C(C)C#Cc1ccc(C(C)C)cc1 (stereo not drawn) has what recorded IC50?
[reply] 500

[ask] // query IC50 value for entry CNC(=O)N(O)C(C)C#Cc1cccc(Oc2ccccn2)c1 (stereo not drawn)
[reply] 300

[ask] So what does the record say about IC50 for CCc1ccc(C#CC(C)N(O)C(N)=O)cc1 (stereo not drawn) ?
[reply] 300

[ask] Given the compound Cc1cccc(Oc2cccc(C#CC(C)N(O)C(N)=O)c2)n1 (stereo not drawn) , what is its reported IC50?
[reply] 300

[ask] Any idea what IC50 was measured for CC(C#Cc1ccc(Sc2ccccc2)o1)N(O)C(N)=O (stereo not drawn) ?
[reply] 200

[ask] Please give the measured IC50 for this compound: CC(C#Cc1ccco1)N(O)C(N)=O (stereo not drawn)
[reply] 6200

[ask] Which IC50 is reported for this compound? NC(=O)N(O)CC#Cc1cccc(Oc2ccccc2)c1
[reply] 500

[ask] // IC50 lookup, key: COc1cccc(Oc2cccc(C#CC(C)N(O)C(N)=O)c2)n1 (stereo not drawn)
[reply] 200

[ask] Reported IC50, compound Cc1ccc(C#CC(C)N(O)C(N)=O)cc1 (stereo not drawn) : ____
[reply] 1400

[ask] Would you mind telling me what IC50 value was observed for CC(C#Cc1ccccc1)N(O)C(N)=O (stereo not drawn) [Example 1, N-Hydroxy-N(4-phenyl-3-butyn-2-yl)urea] ?
[reply] 2400

[ask] For the compound CC(C#Cc1cccc(Oc2cccc(Cl)n2)c1)N(O)C(N)=O (stereo not drawn) , what IC50 is on record?
[reply] 200

[ask] GET /values?readout=IC50&item= NC(=O)N(O)CC#Cc1ccccc1 [Example 32, N-Hydroxy-N,(3,phenyl-2-propynyl)urea]
[reply] 5900

[ask] // returns reported IC50 for input CC(C#Cc1ccc(OCc2ccccc2)cc1)N(O)C(N)=O (stereo not drawn)
[reply] 130
